# protocol-text: activity coefficient (dimensionless); of the first substance listed, at infinite dilution; xn = mol fraction of the nth substance listed
# test-conditions: 358.15 K; 101.33 kPa; Liquid; Chromatography; x1 = 0
measurement-name: activity coefficient
Kindly provide the number alone.

Some compounds with known activity coefficient results, for comparison:
1) C#CCCC [1-pentyne] + CCCCCCCCCCCCCC[P+](CCCCCC)(CCCCCC)CCCCCC.N#CC(=C=[N-])C#N
0.863
2) Cc1cccc(C)c1 [1,3-dimethylbenzene] + CCCCCCCCCCCCCC[P+](CCCCCC)(CCCCCC)CCCCCC.N#CC(=C=[N-])C#N
0.8
3) CCC(C)(C)OC [2-methoxy-2-methylbutane] + CCCCCCCCCCCCCC[P+](CCCCCC)(CCCCCC)CCCCCC.N#CC(=C=[N-])C#N
1.14
4) c1ccccc1 [benzene] + CCCCCCCCCCCCCC[P+](CCCCCC)(CCCCCC)CCCCCC.N#CC(=C=[N-])C#N
0.519
5) CC(C)(C)O [2-methylpropan-2-ol] + CCCCCCCCCCCCCC[P+](CCCCCC)(CCCCCC)CCCCCC.N#CC(=C=[N-])C#N
0.526
6) CCCCCCCCCC [decane] + CCCCCCCCCCCCCC[P+](CCCCCC)(CCCCCC)CCCCCC.N#CC(=C=[N-])C#N
3.1

Let's switch to this compound now.
[in] Return reported activity coefficient; argument: CCCCCCCCC [nonane] + CCCCCCCCCCCCCC[P+](CCCCCC)(CCCCCC)CCCCCC.N#CC(=C=[N-])C#N
[out] 2.7
